Biological target: D3R (Homo sapiens, UniProt P35462)
Sequence (P35462 whole entry): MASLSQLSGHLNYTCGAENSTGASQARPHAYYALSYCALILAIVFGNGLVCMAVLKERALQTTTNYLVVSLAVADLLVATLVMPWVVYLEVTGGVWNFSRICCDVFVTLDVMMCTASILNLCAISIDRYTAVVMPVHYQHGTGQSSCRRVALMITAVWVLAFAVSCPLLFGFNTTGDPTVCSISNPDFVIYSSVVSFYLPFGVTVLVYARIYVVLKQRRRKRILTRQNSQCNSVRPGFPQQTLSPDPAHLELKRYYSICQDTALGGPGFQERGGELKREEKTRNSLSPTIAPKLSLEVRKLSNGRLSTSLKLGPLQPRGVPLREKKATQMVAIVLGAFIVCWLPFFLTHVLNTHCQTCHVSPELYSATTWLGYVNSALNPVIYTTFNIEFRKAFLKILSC
Experiment: D3 mitogenesis functional assay (CHOp-D3 cells)
Conditions: antagonist mode, inhibition of quinpirole stimulation of mitogenesis; read-out: IC50, D3R when tested as an antagonist
Procedure: CHOp-D2 and CHOp-D3 cells are maintained in α-MEM with 10% fetal bovine serum (FBS, Atlas Biologicals), 0.05% pen-strep, and 400 μg/mL of G418. […] The cells are incubated at 37 °C in α-MEM with 10% FBS. After 48–72 h, the cells are rinsed twice with serum-free α-MEM and incubated for 24 h at 37 °C. […] The cells are trypsinized by addition of 10× trypsin solution (1% trypsin in calcium–magnesium-free phosphate-buffered saline), and the plates are filtered and counted as usual. […]
Measure Name: pIC50
Scale explanation: pIC50 corresponds to minus log10 of a concentration expressed in moles per litre.

Guide cases for pIC50, answers given:
1. O=C(NCCCCN1CCN(c2cccc(Cl)c2Cl)CC1)C1COC(c2ccccc2)(c2ccccc2)CO1 (stereo not drawn) : 8.18
2. O=C(NCCCCN1CCN(c2cccc(Cl)c2Cl)CC1)C1COCC(c2ccccc2)(c2ccccc2)O1 (stereo not drawn) : 7.42

Identify pIC50 associated with the compound O=C(NCCCCN1CCN(c2cccc(Cl)c2Cl)CC1)C1COc2ccccc2O1 (stereo not drawn)
7.39

====

Target: UniProt:P28335
Sequence (P28335 33-458): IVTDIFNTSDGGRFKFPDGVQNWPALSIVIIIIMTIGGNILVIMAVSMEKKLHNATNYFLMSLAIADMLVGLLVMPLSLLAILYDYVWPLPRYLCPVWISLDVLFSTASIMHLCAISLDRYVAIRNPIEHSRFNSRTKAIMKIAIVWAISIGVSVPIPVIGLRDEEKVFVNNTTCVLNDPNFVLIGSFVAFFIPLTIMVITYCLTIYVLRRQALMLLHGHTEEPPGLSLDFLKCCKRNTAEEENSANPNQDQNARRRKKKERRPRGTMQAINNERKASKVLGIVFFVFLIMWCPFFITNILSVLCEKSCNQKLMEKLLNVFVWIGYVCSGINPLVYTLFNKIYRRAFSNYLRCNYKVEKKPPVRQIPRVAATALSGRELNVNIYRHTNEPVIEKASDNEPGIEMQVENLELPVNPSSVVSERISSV
Assay: 5-HT2C IP-1 formation (HEK-h5HT2C cells)
The following compounds are shown together with reported EC50 values.
Form entry: value (nM) — number only.

1) O=C(NCCCCN1CCN(c2cccc(Cl)c2Cl)CC1)C1COc2ccccc2O1 (centres unmarked) [compound 9] : 750

Under UniProt:P28335, report EC50 for O=C(NCCCCN1CCN(c2cccc(Cl)c2Cl)CC1)C1COC(c2ccccc2)(c2ccccc2)CO1 (centres unmarked) [compound 6]
380

====

The following compounds are shown together with reported melting point values.
Where a name gives a salt, the structure may show the parent alone.

Guide cases for melting point, answers given:
1) O=C(NCCC(O)CN1CCN(c2cccc(Cl)c2Cl)CC1)C1COC(c2ccccc2)(c2ccccc2)CO1 (stereo not drawn) (as salt: oxalate) : 132 to 133 °C
2) O=C(NCCC(F)CN1CCN(c2cccc(Cl)c2Cl)CC1)C1COc2ccccc2O1 (stereo not drawn) (as salt: oxalate) [11a] : 200 to 201 °C

Turning now to a further compound:
Identify melting point associated with the compound O=C(NCCC(F)CN1CCN(c2cccc(Cl)c2Cl)CC1)C1COC(c2ccccc2)(c2ccccc2)CO1 (stereo not drawn) (as salt: oxalate)
126 to 127 °C

====

The following compounds are shown together with reported Ki values.
molecular target: human 5-HT1AR (Homo sapiens); construct: expressed in transfected cells; host or cells: HeLa; assay: Radioligand binding assay at human 5-HT1AR ([3H]8-OH-DPAT, HeLa cells); conditions: HeLa cells expressing h5-HT1AR, read-out: Ki ± SEM, 5-HT1AR
Sequence (P08908 whole entry): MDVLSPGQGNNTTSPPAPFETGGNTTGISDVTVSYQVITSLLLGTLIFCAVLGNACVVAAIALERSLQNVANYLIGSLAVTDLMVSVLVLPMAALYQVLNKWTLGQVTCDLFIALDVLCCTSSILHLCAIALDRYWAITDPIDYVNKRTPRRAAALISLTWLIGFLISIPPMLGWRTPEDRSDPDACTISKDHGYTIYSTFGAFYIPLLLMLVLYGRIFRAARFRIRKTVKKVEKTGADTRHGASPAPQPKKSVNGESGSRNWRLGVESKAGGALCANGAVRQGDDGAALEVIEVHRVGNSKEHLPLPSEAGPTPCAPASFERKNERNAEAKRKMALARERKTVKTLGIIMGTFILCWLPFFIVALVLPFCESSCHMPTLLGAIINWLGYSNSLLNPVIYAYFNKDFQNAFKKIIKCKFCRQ
Form entry: value (nM) — number only.

1. O=C(NCCCCN1CCN(c2cccc(Cl)c2Cl)CC1)C1COCC(c2ccccc2)(c2ccccc2)O1 (stereo not drawn) [compound 3] : 288

Identify Ki associated with the compound O=C(NCCCCN1CCN(c2cccc(Cl)c2Cl)CC1)C1COC(c2ccccc2)(c2ccccc2)CO1 (stereo not drawn) [compound 6]
9.1

Identify Ki associated with the compound O=C(NCCCCN1CCN(c2cccc(Cl)c2Cl)CC1)C1COc2ccccc2O1 (stereo not drawn) [compound 9]
23.8

====

target: D3R (Homo sapiens, UniProt P35462); assay: Radioligand competition binding at human D3R ([3H]N-methylspiperone, HEK293 membranes); parameters: expressed in transfected cells; host or cells: HEK293; settings: ratio of Ki values D2R/D3R
The following compounds are shown together with reported D2/D3 values.
Would you mind answering with just the numeric figure?

Guide cases for D2/D3, answers given:
1. O=C(NCCCCN1CCN(c2cccc(Cl)c2Cl)CC1)C1COCC(c2ccccc2)(c2ccccc2)O1 (stereo not drawn) : 143
2. Oc1cccc(OCCNCC2COCC(c3ccccc3)(c3ccccc3)O2)c1 (stereo not drawn) : 2

Turning now to a further compound:
Under D3R (Homo sapiens, UniProt P35462), report D2/D3 for O=C(NCCC(O)CN1CCN(c2cccc(Cl)c2Cl)CC1)C1COC(c2ccccc2)(c2ccccc2)CO1 (stereo not drawn)
23

====

The following compounds are shown together with reported D4/D3 values.
molecular target: D3R (Homo sapiens, UniProt P35462); experiment: Radioligand competition binding at human D3R ([3H]N-methylspiperone, HEK293 membranes); parameters: expressed in transfected cells; host or cells: HEK293; settings: ratio of Ki values D4R/D3R
Would you mind answering with just the numeric figure?

Guide cases for D4/D3, answers given:
1) O=C(NCCC(O)CN1CCN(c2cccc(Cl)c2Cl)CC1)C1COc2ccccc2O1 (stereo not shown) [10a] : 6
2) O=C(NCCC(O)CN1CCN(c2cccc(Cl)c2Cl)CC1)C1COC(c2ccccc2)(c2ccccc2)CO1 (stereo not shown) : 17
3) O=C(NCCCCN1CCN(c2cccc(Cl)c2Cl)CC1)C1COC(c2ccccc2)(c2ccccc2)CO1 (stereo not shown) : 35
4) Oc1cccc(OCCNCC2COCC(c3ccccc3)(c3ccccc3)O2)c1 (stereo not shown) : 8
5) O=C(NCCCCN1CCN(c2cccc(Cl)c2Cl)CC1)C1COCC(c2ccccc2)(c2ccccc2)O1 (stereo not shown) : 566
6) O=C(NCCC(O)CN1CCN(c2cccc(Cl)c2Cl)CC1)C1COc2ccccc2O1 (stereo not shown) [10b] : 10

Identify D4/D3 associated with the compound O=C(NCCCCN1CCN(c2cccc(Cl)c2Cl)CC1)C1COc2ccccc2O1 (stereo not shown)
35

====

target: D3R (Homo sapiens, UniProt P35462); assay: Radioligand competition binding at human D3R ([3H]N-methylspiperone, HEK293 membranes); design: expressed in transfected cells; host or cells: HEK293; conditions: [3H]N-methylspiperone, HEK 293 cells expressing hD3R; read-out: Ki ± SEM, D3R
Measure Name: pKi
Scale explanation: pKi corresponds to minus log10 of a concentration expressed in moles per litre.

Guide cases for pKi, answers given:
1) O=C(NCCCCN1CCN(c2cccc(Cl)c2Cl)CC1)C1COCC(c2ccccc2)(c2ccccc2)O1 (stereo not shown) : 8.62
2) O=C(NCCC(O)CN1CCN(c2cccc(Cl)c2Cl)CC1)C1COc2ccccc2O1 (stereo not shown) [10a] : 7.36
3) O=C(NCCC(F)CN1CCN(c2cccc(Cl)c2Cl)CC1)C1COC(c2ccccc2)(c2ccccc2)CO1 (stereo not shown) : 6.53
4) O=C(NCCC(O)CN1CCN(c2cccc(Cl)c2Cl)CC1)C1COc2ccccc2O1 (stereo not shown) [10b] : 7.63
5) O=C(NCCC(O)CN1CCN(c2cccc(Cl)c2Cl)CC1)C1COC(c2ccccc2)(c2ccccc2)CO1 (stereo not shown) : 7.63
6) O=C(NCCCCN1CCN(c2cccc(Cl)c2Cl)CC1)C1COc2ccccc2O1 (stereo not shown) : 8.67

Identify pKi associated with the compound O=C(NCCCCN1CCN(c2cccc(Cl)c2Cl)CC1)C1COC(c2ccccc2)(c2ccccc2)CO1 (stereo not shown)
8.80

Identify pKi associated with the compound O=C(NCCC(O)CN1CCN(c2cccc(Cl)c2Cl)CC1)C1COCC(c2ccccc2)(c2ccccc2)O1 (stereo not shown) [4a]
6.79

Identify pKi associated with the compound O=C(NCCC(F)CN1CCN(c2cccc(Cl)c2Cl)CC1)C1COCC(c2ccccc2)(c2ccccc2)O1 (stereo not shown)
6.15

Identify pKi associated with the compound O=C(NCCC(O)CN1CCN(c2cccc(Cl)c2Cl)CC1)C1COCC(c2ccccc2)(c2ccccc2)O1 (stereo not shown) [4b]
7.11

====

Target protein (sequence): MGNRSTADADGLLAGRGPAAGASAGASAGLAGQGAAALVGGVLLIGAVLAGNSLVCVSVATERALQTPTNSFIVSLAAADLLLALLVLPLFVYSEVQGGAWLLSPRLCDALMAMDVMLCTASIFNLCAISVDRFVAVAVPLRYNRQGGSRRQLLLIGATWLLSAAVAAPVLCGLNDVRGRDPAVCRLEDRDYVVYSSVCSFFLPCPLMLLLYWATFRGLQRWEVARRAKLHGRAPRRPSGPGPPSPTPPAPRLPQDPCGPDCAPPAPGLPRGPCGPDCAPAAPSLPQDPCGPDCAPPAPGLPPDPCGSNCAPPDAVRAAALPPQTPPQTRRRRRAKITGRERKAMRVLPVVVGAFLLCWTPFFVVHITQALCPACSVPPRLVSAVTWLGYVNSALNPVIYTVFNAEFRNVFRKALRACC
Mark true for Ki under 200 nM, false if at or over.

Worked examples follow.
1) O=C(NCCC(O)CN1CCN(c2cccc(Cl)c2Cl)CC1)C1COC(c2ccccc2)(c2ccccc2)CO1 (stereo not drawn) : false
2) O=C(NCCC(O)CN1CCN(c2cccc(Cl)c2Cl)CC1)C1COc2ccccc2O1 (stereo not drawn) [10a] : false
3) O=C(NCCC(O)CN1CCN(c2cccc(Cl)c2Cl)CC1)C1COc2ccccc2O1 (stereo not drawn) [10b] : false
4) O=C(NCCCCN1CCN(c2cccc(Cl)c2Cl)CC1)C1COCC(c2ccccc2)(c2ccccc2)O1 (stereo not drawn) : false
5) O=C(NCCCCN1CCN(c2cccc(Cl)c2Cl)CC1)C1COC(c2ccccc2)(c2ccccc2)CO1 (stereo not drawn) : true

Does the reported Ki of the following compound sit strictly below 200 nM? O=C(NCCCCN1CCN(c2cccc(Cl)c2Cl)CC1)C1COc2ccccc2O1 (stereo not drawn)
true
